All figures here come from patent US7524853B2.

# target_of_assay: 17β-hydroxysteroid dehydrogenase type 1 (17β-HSD type 1) (Homo sapiens, UniProt P14061)
# Construct: expressed in transfected cells; host or cells: MCF-7
# assay_explanation: Inhibition of 17β-HSD type 1 in MCF-7 cells stably expressing the isoenzyme (tritium labeled estrone conversion, HPLC)
# Format: cell-based
# measurement_conditions: 1 μM test compound; MCF-7 cells expressing 17β-HSD type 1; 2 nM tritium labeled estrone
measured_endpoint: % Inhibition HSD1 1 μM (%)

1) CCCCC(CC)c1nc2sc3c(O)cccc3c2c(=O)n1CCc1ccccc1 (stereo not shown) ... 11.4
2) CC(C)=Cc1nc2sc3c(O)cccc3c2c(=O)n1CCc1cccs1 ... 18.0
3) O=c1c2c(nc(Cc3ccccc3)n1CCc1cccs1)sc1c(O)cccc12 ... 20.4
4) CCCCC(CC)c1nc2sc3c(O)cccc3c2c(=O)n1CCc1cccs1 (stereo not shown) ... 29.8
5) O=c1c2c(nc(CCc3ccccc3)n1CCc1cccs1)sc1c(O)cccc12 ... 22.6
6) O=c1c2c(nc(Cc3ccccc3)n1Cc1ccccc1)sc1c(O)cccc12 ... 21.7
7) O=c1c2c(nc(-c3ccc(F)cc3F)n1CCc1ccccc1)sc1c(O)cccc12 ... 25.1
8) CCCCC(CC)c1nc2sc3c(O)cccc3c2c(=O)n1CCCC (stereo not shown) ... 4.9
9) CCCCn1c(CCC2CCCC2)nc2sc3c(O)cccc3c2c1=O ... 16.8
10) CC(C)=Cc1nc2sc3c(O)cccc3c2c(=O)n1Cc1ccccc1 ... 20.1
11) CCCCC(CC)c1nc2sc3c(O)cccc3c2c(=O)n1Cc1ccccc1 (stereo not shown) ... 26.3
12) COCc1nc2sc3c(O)cccc3c2c(=O)n1CCc1ccccc1 ... 22.4
13) O=c1c2c(nc(CCC3CCCC3)n1CCc1cccs1)sc1c(O)cccc12 ... 15.7
14) COCc1nc2sc3c(O)cccc3c2c(=O)n1CCc1cccs1 ... 17.2
15) O=c1c2c(nc(CCc3ccccc3)n1Cc1ccccc1)sc1c(O)cccc12 ... 14.4
16) O=c1c2c(nc(CCC3CCCC3)n1CCc1ccccc1)sc1c(O)cccc12 ... 25.2

---

Recorded inhibition at 1 µM for the following molecules
# target_of_assay: 17β-hydroxysteroid dehydrogenase type 3 (17β-HSD type 3) (Homo sapiens, UniProt P37058)
# Construct: expressed in transfected cells; host or cells: MCF-7
# Sequence (P37058 whole entry): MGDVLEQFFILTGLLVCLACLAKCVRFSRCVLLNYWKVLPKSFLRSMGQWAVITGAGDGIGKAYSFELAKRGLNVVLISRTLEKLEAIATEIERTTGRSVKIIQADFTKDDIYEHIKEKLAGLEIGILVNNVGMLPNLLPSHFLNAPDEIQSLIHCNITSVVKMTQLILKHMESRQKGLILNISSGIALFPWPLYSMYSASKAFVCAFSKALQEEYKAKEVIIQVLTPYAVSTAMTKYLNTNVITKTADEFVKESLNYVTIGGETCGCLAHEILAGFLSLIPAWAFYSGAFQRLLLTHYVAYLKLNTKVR
# assay_explanation: Inhibition of 17β-HSD type 3 in MCF-7 cells stably expressing the isoenzyme (tritium labeled androstenedione conversion, HPLC)
# Assay type: cell-based
# measurement_conditions: MCF7; 1 μM test compound; MCF-7 cells expressing 17β-HSD type 3; 2 nM tritium labeled androstenedione; read-out: % Inhibition HSD3 1 μM
measured_endpoint: inhibition at 1 µM (%)

1) O=C(OCCn1c(-c2cccs2)nc2sc3c(c2c1=O)CCC(Br)(Br)C3=O)c1cccs1 ... 16.1
2) CCC(C)Cn1c(-c2cc(OC)c(OC)c(OC)c2Cl)nc2sc3c(c2c1=O)CCC(Cl)C3=O (stereo not drawn) ... 2.7
3) COc1cc(-c2nc3sc4c(c3c(=O)n2Cc2ccccc2)CCCC4O)cc(OC)c1OC (stereo not drawn) ... 19.2
4) CC(=O)OCc1nc2sc3c(c2c(=O)n1Cc1ccccc1)CCCC3 ... 16.9
5) COCCn1c(-c2cc(OC)c(OC)c(OC)c2Br)nc2sc3c(c2c1=O)CCC(Br)C3=O (stereo not drawn) ... 7.3
6) CCC(C)Cn1c(-c2cc(OC)c(OC)c(OC)c2Cl)nc2sc3c(O)cccc3c2c1=O (stereo not drawn) ... 12.5
7) COc1cc(-c2nc3sc4c(c3c(=O)n2Cc2ccccc2)CC(C)CC4=O)cc(OC)c1OC (stereo not drawn) ... 14.4
8) O=C(OCCn1c(-c2cccs2)nc2sc3c(O)cccc3c2c1=O)c1cccs1 ... 37.9
9) CC(=O)OCc1nc2sc3c(c2c(=O)n1-c1ccccc1)CCCC3 ... 18.5

---

# target_of_assay: 17β-hydroxysteroid dehydrogenase type 1 (17β-HSD type 1) (Homo sapiens)
# Construct: expressed in transfected cells; host or cells: MCF-7
# assay_explanation: Inhibition of 17β-HSD type 1 in MCF-7 cells stably expressing the isoenzyme (tritium labeled estrone conversion, HPLC)
# Format: cell-based
# measurement_conditions: MCF7; 1 μM test compound; MCF-7 cells expressing 17β-HSD type 1; 2 nM tritium labeled estrone; read-out: % Inhibition HSD1 1 μM
Rule: true (1) for inhibition at 1 µM not less than 20%, false (0) for anything less.

1) O=C1c2sc3nc(-c4cccs4)n(Cc4ccccc4)c(=O)c3c2CCC1Br (centres unmarked) ... true (1)
2) O=C(OCCn1c(-c2cccs2)nc2sc3c(c2c1=O)CCC(Br)C3=O)c1cccs1 (centres unmarked) ... true (1)
3) CCCc1nc2sc3c(c2c(=O)n1Cc1ccco1)CCCC3=O ... false (0)
4) COc1cccc(-c2nc3sc4c(c3c(=O)n2Cc2ccccc2)CCC(Br)C4=O)c1 (centres unmarked) ... true (1)
5) CCCc1nc2sc3c(c2c(=O)n1Cc1ccccc1OC)CCCC3=O ... false (0)

---

inhibition at 1 µM by entry:
# target_of_assay: 17β-hydroxysteroid dehydrogenase type 1 (17β-HSD type 1) (Homo sapiens)
# Construct: expressed in transfected cells; host or cells: MCF-7
# Sequence (P14061 1-328): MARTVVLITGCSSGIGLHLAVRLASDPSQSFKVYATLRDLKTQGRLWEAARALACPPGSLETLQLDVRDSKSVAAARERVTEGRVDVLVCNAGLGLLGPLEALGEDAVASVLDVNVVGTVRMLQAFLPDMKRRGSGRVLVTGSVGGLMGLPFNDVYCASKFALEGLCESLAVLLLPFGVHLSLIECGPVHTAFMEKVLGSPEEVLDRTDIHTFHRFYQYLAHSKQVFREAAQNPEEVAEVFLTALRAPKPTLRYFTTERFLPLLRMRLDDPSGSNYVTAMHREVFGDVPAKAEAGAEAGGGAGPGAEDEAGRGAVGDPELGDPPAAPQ
# assay_explanation: Inhibition of 17β-HSD type 1 in MCF-7 cells stably expressing the isoenzyme (tritium labeled estrone conversion, HPLC)
# Format: cell-based
# measurement_conditions: MCF7; 1 μM test compound; MCF-7 cells expressing 17β-HSD type 1; 2 nM tritium labeled estrone; read-out: % Inhibition HSD1 1 μM
measured_endpoint: inhibition at 1 µM

1) CCCCn1c(-c2cc(OC)c(OC)c(OC)c2)nc2sc3c(O)cccc3c2c1=O ... 37.7%
2) O=c1c2c3c(sc2nc(CO)n1-c1ccccc1)CCCC3 ... 0.3%
3) Cc1nc2sc3c(c2c(=O)n1-c1ccccc1)CCC(Br)C3=O (stereo not shown) ... 10.5%
4) O=C(OCCn1c(-c2cccs2)nc2sc3c(c2c1=O)CCCC3=O)c1cccs1 ... 15.3%
5) COCc1nc2sc3c(c2c(=O)n1Cc1ccccc1)CCCC3=O ... 12%
6) CCCc1nc2sc3c(OC(C)=O)cccc3c2c(=O)n1Cc1ccc(Br)o1 ... 28.8%
7) COc1cccc(-c2nc3sc4c(c3c(=O)n2Cc2ccccc2)CCCC4)c1 ... 7.1%
8) COc1cc(-c2nc3sc4c(c3c(=O)n2Cc2ccco2)CCCC4=O)cc(OC)c1OC ... 17.6%
9) O=c1c2c3c(sc2nc(-c2cc(O)c(O)c(O)c2)n1Cc1ccccc1)CCCC3 ... 5.7%
10) COCCn1c(-c2cccs2)nc2sc3c(c2c1=O)CCCC3 ... 11.7%
11) CCCCn1c(-c2cc(OC)c(OC)c(OC)c2)nc2sc3c(O)c(Br)ccc3c2c1=O ... 15.5%
12) CCSC1=C(C=O)CCc2c1sc1nc(-c3cc(OC)c(OC)c(OC)c3)n(Cc3ccccc3)c(=O)c21 ... 31.8%
13) COC(=O)c1nc2sc3c(c2c(=O)n1Cc1ccccc1)CCCC3=O ... 37.2%
14) CCCCn1c(-c2cc(OC)c(OC)c(O)c2Br)nc2sc3c(O)c(Br)c(C)cc3c2c1=O ... 5.9%
15) O=c1c2c3c(sc2nc(CO)n1Cc1ccccc1)CCCC3 ... 2.6%
16) CCCCn1c(-c2cccs2)nc2sc3c(c2c1=O)CCCC3=O ... 16%
17) COc1ccc(-c2nc3sc4c(c3c(=O)n2-c2ccccc2)CCCC4)cc1 ... 26%
18) Cc1nc2sc3c(c2c(=O)n1-c1ccccc1)CCC(Br)(Br)C3=O ... -7.7%
19) CC(=O)Oc1c(Br)ccc2c1sc1nc(-c3ccccc3)n(Cc3ccccc3)c(=O)c12 ... 13.3%

---

# target_of_assay: 17β-hydroxysteroid dehydrogenase type 1 (17β-HSD type 1) (Homo sapiens)
# Construct: expressed in transfected cells; host or cells: MCF-7
# assay_explanation: Inhibition of 17β-HSD type 1 in MCF-7 cells stably expressing the isoenzyme (tritium labeled estrone conversion, HPLC)
# Type: cell-based
# measurement_conditions: 10 μM test compound; MCF-7 cells expressing 17β-HSD type 1; 2 nM tritium labeled estrone
measured_endpoint: % Inhibition HSD1 10 μM

1. CC(C)=Cc1nc2sc3c(O)cccc3c2c(=O)n1Cc1ccccc1 [No. 667] ... 51.9%
2. O=c1c2c(nc(CCc3ccccc3)n1CCc1cccs1)sc1c(O)cccc12 [No. 639] ... 39.3%
3. O=c1c2c(nc(-c3ccc(F)cc3F)n1CCc1ccccc1)sc1c(O)cccc12 [No. 630] ... 21.0%
4. O=c1c2c(nc(Cc3ccccc3)n1CCc1cccs1)sc1c(O)cccc12 [No. 641] ... 35.0%
5. CCCCC(CC)c1nc2sc3c(O)cccc3c2c(=O)n1CCc1cccs1 (centres unmarked) [No. 644] ... 28.4%
6. COCc1nc2sc3c(O)cccc3c2c(=O)n1CCc1cccs1 [No. 645] ... 29.1%
7. O=c1c2c(nc(CCC3CCCC3)n1CCc1ccccc1)sc1c(O)cccc12 [No. 627] ... 26.6%
8. CCCCn1c(CCC2CCCC2)nc2sc3c(O)cccc3c2c1=O [No. 634] ... 17.9%
9. CCCCC(CC)c1nc2sc3c(O)cccc3c2c(=O)n1Cc1ccccc1 (centres unmarked) [No. 663] ... 24.6%
10. COCc1nc2sc3c(O)cccc3c2c(=O)n1CCc1ccccc1 [No. 629] ... 33.1%
11. O=c1c2c(nc(CCC3CCCC3)n1CCc1cccs1)sc1c(O)cccc12 [No. 643] ... 34.2%
